- assayed system: human S1PR4 (Homo sapiens, UniProt O95977)
- Construct: host or cells: CHO-K1
- Sequence (O95977 1-384): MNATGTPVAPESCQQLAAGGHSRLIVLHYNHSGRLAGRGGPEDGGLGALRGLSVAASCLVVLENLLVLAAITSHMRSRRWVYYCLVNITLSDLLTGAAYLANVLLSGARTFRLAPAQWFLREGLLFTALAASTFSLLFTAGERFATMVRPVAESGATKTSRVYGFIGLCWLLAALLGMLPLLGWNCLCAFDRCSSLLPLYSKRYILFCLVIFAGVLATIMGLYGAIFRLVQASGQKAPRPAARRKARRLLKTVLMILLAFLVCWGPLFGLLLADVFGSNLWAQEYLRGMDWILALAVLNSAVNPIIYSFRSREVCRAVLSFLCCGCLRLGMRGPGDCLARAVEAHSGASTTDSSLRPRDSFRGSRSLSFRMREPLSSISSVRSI
- method: Intracellular Ca2+ release (FLIPR) agonist potency, S1P4
- Assay type: cell-based
- condition info: recombinant CHO-K1 cells expressing human S1PR4, aequorin, Gq/i5; Calcium 5 FLIPR; read-out: S1P4 EC50
Below, each entry is listed alongside its reported EC50.

Below: 8 molecules and their reported EC50.
| molecule | outcome measure | assay result |
| --- | --- | --- |
| O=C(O)COC1CCc2cc(OCc3cc(OC(F)(F)F)ccc3F)ccc2C1 (stereo not drawn) | EC50 | > 1000 nM |
| O=C(O)C1CN(C2COc3c(cccc3OCc3c(Cl)cccc3Cl)C2)C1 (stereo not drawn) | EC50 | > 1000 nM |
| CCc1cccc(Cl)c1COc1ccc2c(c1)CCC(NCC(=O)N(C)OC)C2 (stereo not drawn) | EC50 | > 1000 nM |
| O=C(O)C1CN(C2COc3cc(-c4ccc(OCc5ccc(Cl)cc5)cc4)ccc3C2)C1 (stereo not drawn) | EC50 | > 1000 nM |
| CCc1cccc(Cl)c1COc1ccc2c(c1)CCC(NCC(=O)NO)C2 (stereo not drawn) | EC50 | < 1000 nM |
| O=C(O)[C@H]1C[C@@H](NC2CCc3cc(OCc4c(Cl)cccc4Cl)ccc3C2)C1 (stereo partly drawn) | EC50 | < 1000 nM |
| CSc1ccc(COc2ccc3c(c2)CCC(OCC(=O)O)C3)cc1 (stereo not drawn) | EC50 | > 1000 nM |
| CCc1cccc(Cl)c1COc1ccc2c(c1)CCC(NC1(C(=O)O)CC1)C2 (stereo not drawn) | EC50 | < 1000 nM |

Note: attention shifts to another entry.
Data request: Please give the measured EC50 for this molecule: O=C(O)COC1CCc2cc(OCc3cc(C(F)(F)F)ccc3F)ccc2C1 (stereo not drawn)
Data returned: > 1000 nM

* * *

- assayed system: human S1PR5 (Homo sapiens)
- Construct: host or cells: CHO-K1
- Sequence (Q9H228 whole entry): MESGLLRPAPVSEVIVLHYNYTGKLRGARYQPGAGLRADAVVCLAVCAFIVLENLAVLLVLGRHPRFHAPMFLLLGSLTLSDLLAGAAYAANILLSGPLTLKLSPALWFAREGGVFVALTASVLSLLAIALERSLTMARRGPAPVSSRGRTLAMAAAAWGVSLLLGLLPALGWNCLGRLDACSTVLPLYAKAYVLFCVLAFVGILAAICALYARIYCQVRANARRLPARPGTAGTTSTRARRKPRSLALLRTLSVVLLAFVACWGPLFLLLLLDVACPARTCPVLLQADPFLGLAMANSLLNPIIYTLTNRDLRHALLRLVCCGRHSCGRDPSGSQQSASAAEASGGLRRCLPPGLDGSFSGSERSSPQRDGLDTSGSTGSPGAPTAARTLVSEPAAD
- method: Intracellular Ca2+ release (FLIPR) agonist potency, S1P5
- Type: cell-based
- condition info: recombinant CHO-K1 cells expressing human S1PR5, aequorin, Gq/i5; Calcium 5 FLIPR; read-out: S1P5 EC50 range
outcome measure: EC50

Below: 4 compounds and their reported EC50.
| compound | outcome measure | assay result |
| --- | --- | --- |
| O=C(O)COC1CCc2cc(OCc3cc(F)ccc3C(F)(F)F)ccc2C1 (stereo not drawn) [Compound 168] | EC50 | < 0.01 µM |
| O=C(O)CCNC1CCc2cc(OCc3ccc(Cl)cc3)ccc2C1 (stereo not drawn) [Compound 11] | EC50 | 1 to 10 µM |
| CN(CC(=O)O)C1COc2cc(OCc3ccc(OCc4cccc(F)c4F)cc3)ccc2C1 (stereo not drawn) [Compound 133] | EC50 | < 0.01 µM |
| N#Cc1ccc(COc2ccc3c(c2)OCC(N2CC(C(=O)O)C2)C3)c(F)c1 (stereo not drawn) [Compound 89] | EC50 | 1 to 10 µM |

Data request: Please give the measured EC50 for this compound: Cc1ccc(F)c(COc2ccc3c(c2)CCC(OCC(=O)O)C3)c1 (stereo not drawn) [Compound 160]
Data returned: 0.1 to 1 µM

Data request: Please give the measured EC50 for this compound: Cc1ccc(COc2ccc3c(c2)OCC(N2CC(C(=O)O)C2)C3)c(F)c1 (stereo not drawn) [Compound 88]
Data returned: 1 to 10 µM

Data request: Please give the measured EC50 for this compound: O=C(O)CCOC1CCc2cc(OCc3ccc(Cl)cc3)ccc2C1 (stereo not drawn) [Compound 191]
Data returned: 1 to 10 µM

Data request: Please give the measured EC50 for this compound: O=C(O)C1CN(C2CCOc3cc(OCc4c(Cl)cccc4Cl)c(F)cc32)C1 (stereo not drawn) [Compound 223]
Data returned: < 0.01 µM

Data request: Please give the measured EC50 for this compound: C=C(CN(Cc1c(Cl)cccc1CC)C1CCc2cc(OCc3c(Cl)cccc3CC)ccc2C1)C(=O)OC (stereo not drawn) [Compound 22]
Data returned: 1 to 10 µM

Hello, the source for this data is patent US10280159B2, in case you need it.
